test system: HEK-293T; assay: Multiplex assay against HEK293T; assay type: toxicity, cell-based; details: human, 12 h, 10 µM, compound concentration 10 uM, replicate 2
OUTCOME MEASURE: Population Pyknosed Nuclei (%)
Respond with the figure and its unit, in that order.

Request: Would you kindly share the measured Population Pyknosed Nuclei (%) for CCCCCNC(=N)N/N=C/c1c[nH]c2ccc(OC)cc12.O=C(O)/C=C\C(=O)O [TEGASEROD MALEATE] ?
Result: 81%

Request: Okay, and Oc1cccc(-c2nc(N3CCOCC3)c3oc4ncccc4c3n2)c1 [PI-103] ?
Result: 85%

Request: Same again, this time with `CC(C)c1cc(Nc2nc(N3CCC[C@H](N)C3)ncc2C(N)=O)cc(C(C)C)n1`
Result: 87%

Request: Another molecule to check: `Cl.NC[C@@H]1O[C@H](C23CC4CC(CC(C4)C2)C3)Cc2c1ccc(O)c2O`
Result: 86%

Request: Moving on to `Cc1ccc(NC(=O)Nc2cc(C(F)(F)F)ccc2F)cc1Nc1ccc2c(c1)NC(=O)/C2=C\c1ccc[nH]1`
Result: 5%

Request: Also check `CN(c1cc(C(F)(F)F)nc(OCCC(=O)O)n1)c1cccc2c1CCC2`
Result: 49%

Request: Ok, now CCOc1ccn(-c2ccc(F)cc2)c(=O)c1C(=O)Nc1ccc(Oc2ccnc(N)c2Cl)c(F)c1 [BMS-777607]
Result: 4%

Request: # repeat for `Cc1c(P(=S)(c2ccccc2)c2ccccc2)n2ccccc2[n+]1C/C=C/c1ccccc1.[Br-]`
Result: 84%

Request: Ok, now CC[C@H](Nc1ncnc2[nH]cnc12)c1nc2cccc(F)c2c(=O)n1-c1ccccc1 [IDELALISIB]
Result: 5%

Request: Try the molecule CN1C(=O)[C@@H](NC(=O)c2cc3ccccc3[nH]2)N=C(c2ccccc2)c2ccccc21 [DEVAZEPIDE]
Result: 60%

Request: Proceed to N#CCNC(=O)c1ccc(-c2ccnc(Nc3ccc(N4CCOCC4)cc3)n2)cc1 [MOMELOTINIB]
Result: 60%
